# study-system: T1, hPIV-3 hemagglutinin-neuraminidase (HN), expressed on transfected HEK293T cells (human parainfluenza virus 3 (hPIV-3), UniProt P08492 1-572)
# T1 chain: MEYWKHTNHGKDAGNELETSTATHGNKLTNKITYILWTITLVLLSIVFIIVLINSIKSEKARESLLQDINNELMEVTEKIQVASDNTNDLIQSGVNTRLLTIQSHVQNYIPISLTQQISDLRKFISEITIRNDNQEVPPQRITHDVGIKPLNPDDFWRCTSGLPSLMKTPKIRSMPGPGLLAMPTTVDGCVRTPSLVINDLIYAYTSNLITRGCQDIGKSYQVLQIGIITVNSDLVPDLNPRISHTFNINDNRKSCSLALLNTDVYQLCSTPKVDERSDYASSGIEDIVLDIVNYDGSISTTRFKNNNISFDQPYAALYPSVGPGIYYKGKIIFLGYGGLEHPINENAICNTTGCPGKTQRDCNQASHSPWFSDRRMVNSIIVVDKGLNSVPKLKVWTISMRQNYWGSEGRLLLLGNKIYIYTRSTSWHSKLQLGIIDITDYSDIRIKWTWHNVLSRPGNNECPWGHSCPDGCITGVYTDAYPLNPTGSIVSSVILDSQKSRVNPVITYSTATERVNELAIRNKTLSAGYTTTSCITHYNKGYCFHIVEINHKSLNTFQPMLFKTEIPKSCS
metric: fold reduction of binding at 500 µg/ml of zanamivir (fold)
Report only the number, with the unit fold understood.

Note to self: fold reduction of binding at 500 µg/ml of zanamivir recorded for VHH A2R3-59 (VHH, also called 2AR3-59) VHH: QVQLQESGGGLVQPGGSLRLSCAASGSISGINGMGWYRQAPGKQRELVAAITSGGSTNYADSVKGRFTISRDNAKNTVDLQMNSLQPEDTAVYYCYVSSTPSWGLYDDYWGQGTQVTVSS was 2.4

Entry VHH A2R3-60 (VHH, also called 2AR3-60) VHH: QVQLQESGGGLVQPGGSLRLDCAASGTTVSINGMGWYRQAPGKQREFVALSTTGGVTNYADSVKGRFTISMDNAKKTVALQMNSLKPEDTAVYYCNAVASPSWGLYDDYWGQGTQVTVSS , fold reduction of binding at 500 µg/ml of zanamivir reported as 1.5
